Molecular target: hCB1 (Homo sapiens)
Sequence (P21554 whole entry): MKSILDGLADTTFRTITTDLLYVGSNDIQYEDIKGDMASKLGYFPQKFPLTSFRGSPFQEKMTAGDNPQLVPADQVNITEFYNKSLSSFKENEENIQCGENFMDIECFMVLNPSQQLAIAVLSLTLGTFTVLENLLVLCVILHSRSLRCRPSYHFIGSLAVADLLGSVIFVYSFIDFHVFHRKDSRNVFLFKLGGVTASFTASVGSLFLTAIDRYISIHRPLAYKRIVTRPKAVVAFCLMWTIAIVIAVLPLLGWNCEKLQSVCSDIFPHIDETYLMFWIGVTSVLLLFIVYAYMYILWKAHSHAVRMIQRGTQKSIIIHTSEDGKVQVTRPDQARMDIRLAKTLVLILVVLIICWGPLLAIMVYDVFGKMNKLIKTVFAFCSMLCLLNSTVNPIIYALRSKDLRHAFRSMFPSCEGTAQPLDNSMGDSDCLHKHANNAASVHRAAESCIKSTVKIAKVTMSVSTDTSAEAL
Experiment: Agonist GTP-binding, Sf9 membranes
Conditions: Human CB1, Sf9 membranes; read-out: Agonist Potency EC50
OBSERVATION_TYPE: pEC50
Schema: pEC50 number; meaning minus log10 of the concentration expressed in molar units.

Provide measured pEC50 on hCB1 (Homo sapiens) for CC(C)(N[C@@H]1C[C@H](c2ccccc2)N(c2ccc(OC(F)(F)F)cc2)C1=O)c1ccc(C(F)(F)F)nc1.Cc1ccc(S(=O)(=O)O)cc1 [Example 49, tosylate] please.
9.09

----------
Biological target: hCB1 (Homo sapiens)
Test: hCB1 SPA GTPγ35S Sf9 membranes, antagonist
Type: biochemical
Set-up: purchased Applied Cell Sciences, Gaithersburg, Md; PerkinElmer Life Sciences, Boston, Mass; host or cells: Sf9 insect cells (recombinant expression), membranes
Details: hCB1 SPA GTPγ35S Sf9 Mem 22.7 ug protein/well Antagonist; read-out: Inverse Agonist Potency CB1 (Kb)
Counter-ions that a name gives are not always drawn.
Each entry below lists one item and its recorded Kb value.

COMPOUND: CC(C)(N[C@@H]1C[C@H](c2cccc(OC(F)(F)C(F)F)c2)N(c2ccc(Cl)cc2)C1=O)c1ccc(C(F)(F)F)nc1
TESTED_ON: hCB1 (Homo sapiens)
Kb: 0.91 nM
--
COMPOUND: CC(C)(N[C@H]1C[C@H](c2ccccc2)N(c2ccc(OC(F)(F)F)cc2)C1=O)c1ccc(C(F)(F)F)nc1
TESTED_ON: hCB1 (Homo sapiens)
Kb: 72.7 nM
--
COMPOUND: CC(C)(N[C@@H]1C[C@H](c2cccc(OC(F)(F)C(F)F)c2)N(c2ccc(C(F)(F)F)cc2)C1=O)c1ccc(C(F)(F)F)nc1
TESTED_ON: hCB1 (Homo sapiens)
Kb: 0.71 nM

# return recorded Kb for entry CC(F)(F)c1cccc([C@H]2C[C@@H](NC(C)(C)c3ccc(C(F)(F)F)nc3)C(=O)N2c2ccc(OC(F)(F)F)cc2)c1 [Example 32B]
2.38 nM

# return recorded Kb for entry CC(C)(N[C@@H]1C[C@H](c2ccccc2)N(c2ccc(OC(F)(F)F)cc2)C1=O)c1ccc(C(F)(F)F)nc1.Cc1ccc(S(=O)(=O)O)cc1 [Example 49, tosylate]
2.6 nM

# return recorded Kb for entry Cc1cccc([C@H]2C[C@@H](NC(C)(C)c3ccc(C(F)(F)F)nc3)C(=O)N2c2ccc(OC(F)(F)F)cc2)c1 [Example 1, tosylate]
0.91 nM

# return recorded Kb for entry CC(C)(N[C@H]1C[C@@H](c2ccccc2)N(c2ccc(OC(F)(F)F)cc2)C1=O)c1ccc(C(F)(F)F)nc1 [Example 4, tosylate]
107 nM

----------
Each entry below lists one item and its recorded Kb value.
Biological target: Human CB2 (Homo sapiens, UniProt P34972)
Construct: purchased Applied Cell Sciences, Gaithersburg, Md; PerkinElmer Life Sciences, Boston, Mass; host or cells: Sf9 insect cells (recombinant expression), membranes
Sequence (P34972 whole entry): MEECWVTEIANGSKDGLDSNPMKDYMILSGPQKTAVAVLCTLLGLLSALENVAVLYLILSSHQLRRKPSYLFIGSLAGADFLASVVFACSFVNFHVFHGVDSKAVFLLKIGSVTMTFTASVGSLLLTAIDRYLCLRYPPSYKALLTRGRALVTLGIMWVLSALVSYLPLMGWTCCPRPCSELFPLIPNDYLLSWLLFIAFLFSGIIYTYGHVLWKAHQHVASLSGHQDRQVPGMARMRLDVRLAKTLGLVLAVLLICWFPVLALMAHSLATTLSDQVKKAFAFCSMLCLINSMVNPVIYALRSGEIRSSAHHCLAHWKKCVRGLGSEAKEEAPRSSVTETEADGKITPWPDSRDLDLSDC
Experiment: Antibody-capture SPA GTP-γ-35S binding, antagonist/inverse agonist, Sf9 cell membranes
Format: biochemical
Conditions: Antibody-capture SPA GTP-γ-35S binding, human CB2; read-out: Inverse Agonist Potency CB2 (Kb)
Counter-ions that a name gives are not always drawn.

COMPOUND: CC(C)(N[C@H]1C[C@@H](c2ccccc2)N(c2ccc(OC(F)(F)F)cc2)C1=O)c1ccc(C(F)(F)F)nc1 [Example 4, tosylate]
TESTED_ON: Human CB2 (Homo sapiens, UniProt P34972)
MEASUREMENT: > 7.23 µM
//
COMPOUND: CC(C)(N[C@H]1C[C@H](c2ccccc2)N(c2ccc(OC(F)(F)F)cc2)C1=O)c1ccc(C(F)(F)F)nc1 [Example 44]
TESTED_ON: Human CB2 (Homo sapiens, UniProt P34972)
MEASUREMENT: 4.03 µM
//
COMPOUND: CC(C)(N[C@@H]1C[C@H](c2cccc(OC(F)(F)C(F)F)c2)N(c2ccc(Cl)cc2)C1=O)c1ccc(C(F)(F)F)nc1 [Example 41]
TESTED_ON: Human CB2 (Homo sapiens, UniProt P34972)
MEASUREMENT: > 14.2 µM

# return recorded Kb for entry Cc1cccc([C@H]2C[C@@H](NC(C)(C)c3ccc(C(F)(F)F)nc3)C(=O)N2c2ccc(OC(F)(F)F)cc2)c1 [Example 1, tosylate]
0.39 µM

# return recorded Kb for entry CC(F)(F)c1cccc([C@H]2C[C@@H](NC(C)(C)c3ccc(C(F)(F)F)nc3)C(=O)N2c2ccc(OC(F)(F)F)cc2)c1 [Example 32B]
> 4 µM

# return recorded Kb for entry CC(C)(N[C@@H]1C[C@H](c2cccc(OC(F)(F)C(F)F)c2)N(c2ccc(C(F)(F)F)cc2)C1=O)c1ccc(C(F)(F)F)nc1 [Example 40]
> 6.9 µM
